- system-name: human muscarinic M3 receptor (Homo sapiens (Human))
- Sequence (P20309 whole entry): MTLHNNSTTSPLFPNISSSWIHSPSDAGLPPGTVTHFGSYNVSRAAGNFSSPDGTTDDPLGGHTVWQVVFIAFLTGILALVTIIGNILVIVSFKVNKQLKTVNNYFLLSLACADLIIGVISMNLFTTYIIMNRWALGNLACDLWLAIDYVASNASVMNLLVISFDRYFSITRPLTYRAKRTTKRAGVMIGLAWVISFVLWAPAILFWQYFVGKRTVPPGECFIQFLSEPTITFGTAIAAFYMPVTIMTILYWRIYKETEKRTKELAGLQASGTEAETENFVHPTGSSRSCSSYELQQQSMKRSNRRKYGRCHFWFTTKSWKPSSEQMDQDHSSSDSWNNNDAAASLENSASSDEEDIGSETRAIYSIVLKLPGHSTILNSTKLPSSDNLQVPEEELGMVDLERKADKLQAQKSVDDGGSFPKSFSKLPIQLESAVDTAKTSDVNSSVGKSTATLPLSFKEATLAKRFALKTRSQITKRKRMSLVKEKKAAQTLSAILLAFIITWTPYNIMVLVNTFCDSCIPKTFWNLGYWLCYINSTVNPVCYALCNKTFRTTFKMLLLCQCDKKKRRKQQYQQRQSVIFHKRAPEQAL
- procedure-summary: Human muscarinic M3 receptor binding assay ([3H]-NMS, CHO-K1 membranes)
- condition-label: [3H]-NMS displacement, read-out: Binding IC50, nM M3
readout-kind: IC50 (nM)
Answers are plain numbers, in nM.

chemical-string	readout-kind	reading-unit	observed-result
COc1cc(OCCCCN(C)[C@H]2CC[C@H](OC(=O)C(O)(c3cccs3)c3cccs3)CC2)c(Cl)cc1CNC[C@H](O)c1ccc(O)c2[nH]c(=O)ccc12	IC50	nM	0.3
COc1cc(NC(=O)CCN(C)[C@H]2CC[C@H](OC(=O)C(O)(c3cccs3)c3cccs3)CC2)c(F)cc1CNC[C@H](O)c1ccc(O)c2[nH]c(=O)ccc12	IC50	nM	2
COc1cc(NC(=O)OCCN(C)[C@H]2CC[C@H](OC(=O)C(O)(c3cccs3)c3cccs3)CC2)c(C#N)cc1CNC[C@H](O)c1ccc(O)c2[nH]c(=O)ccc12	IC50	nM	1.4

# next molecule below
Note down IC50 recorded for COc1cc(NC(=O)OCCN(C)[C@H]2CC[C@H](OC(=O)C(O)(c3cccs3)c3cccs3)CC2)c(Cl)cc1CNC[C@H](O)c1ccc(O)c2[nH]c(=O)ccc12 1.6
